# target.under.test: SARS-CoV-2 spike S1 subunit, original Wuhan (SARS-CoV-2 (Wuhan), UniProt P0DTC2 P0DTC2:16-685)
# method.notes: filter; dot blot
# condition.context: tags: Sino Biological 40591-V08B1; label: 5'-32P
observation.type: Kd (nM)

# binder, unit.of.measurement, number
measured = [
    ("MSA52 (ssDNA) DNA: TTACGTCAAGGTGTCACTCCGTAGGGTTTGGCTCCGGGCCTGGCGTCGGTCGTCTCTCGCGAAGCATCTCTTTGGCGTG", "nM", 6.6),
]

Provenance of the data: patent US20250101437
